system.tested: human GABAA α2β2γ1 receptor (Homo sapiens (Human), UniProt P47869+Q8N1C3)
assay.protocol: Radioligand binding assay, competition for [3H]RO7239181, γ1-containing GABAA subtype α2β2γ1
observed.property: pKi
Numbers only, as −log10 of the molar value.

Example compounds with recorded pKi:
| compound | observed.property | numeric.readout |
| --- | --- | --- |
| C[C@@H]1N=C(c2c(F)cccc2F)c2c(ccc(Br)c2Cl)-n2cc(Br)c(=O)nc21 | pKi | 8.08 |
| O=c1ccn2c(n1)CN=C(c1ccccc1F)c1c-2ccc(Cl)c1Cl | pKi | 7.24 |
| C[C@@H]1N=C(c2c(F)cccc2F)c2c(ccc(Br)c2Cl)-n2ccc(=O)nc21 | pKi | 7.94 |
| O=c1nc2n(cc1Br)-c1ccc(Br)c(Cl)c1C(c1c(F)cccc1F)=NC2 | pKi | 8.10 |
| CCc1cn2c(nc1=O)[C@H](C)N=C(c1c(F)cccc1F)c1c-2ccc(Cl)c1Cl | pKi | 7.81 |

Provide the reported pKi of each entry below, same order.
1. C[C@@H]1N=C(c2c(F)cccc2F)c2c(ccc(Cl)c2Cl)-n2ccc(=O)nc21
2. Cc1cn2c(nc1=O)[C@H](C)N=C(c1c(F)cccc1F)c1c-2ccc(C(F)(F)F)c1Cl
3. O=c1ccn2c(n1)CN=C(c1c(F)cccc1F)c1c-2ccc(Cl)c1Br
4. O=c1ccn2c(n1)CN=C(c1ccccc1F)c1cc(Cl)ccc1-2 [RE-A, reference compound]
5. C[C@@H]1N=C(c2c(F)cccc2F)c2c(ccc(Cl)c2Br)-n2ccc(=O)nc21
6. O=c1ccn2c(n1)CN=C(c1c(F)cccc1F)c1c-2ccc(Cl)c1Cl
7. C[C@@H]1N=C(c2c(F)cccc2F)c2c(ccc(C(F)(F)F)c2Cl)-n2ccc(=O)nc21
8. Cc1cn2c(nc1=O)[C@H](C)N=C(c1c(F)cccc1F)c1c-2ccc(Cl)c1Cl

Marked response:
[7.88, 7.55, 7.86, 6.91, 7.30, 8.01, 7.26, 7.95]
